- target_entity: Cellular tumor antigen p53 (Homo sapiens)
- method_notes: nuclear p53 accumulation, HPV+ cells – imaging, p53-positive nuclei imaging, 24 h, 48 h (AID 1508601)
- measurement_parameters: 24/48 h, measured here: p53 positive nuclei at 24 h, Library stock concentration: 370 uM, stronger effect = higher value
Out of some 5,700 compounds screened, about 85 (1%) were called active. The sample holds actives, similar compounds and a random draw of the others, so the mix is not that of the screen.
quantity_name: p53-positive nuclei, normalised

Return p53-positive nuclei, normalised measured with Cellular tumor antigen p53 (Homo sapiens) given this compound: NC(=O)c1ncn(C2OC(CO)C(O)C2O)c1O (configuration not stated)
-0.0891%

Return p53-positive nuclei, normalised measured with Cellular tumor antigen p53 (Homo sapiens) given this compound: CN(C)CCC(CSc1ccccc1)Nc1ccc(S(=O)(=O)NC(=O)c2ccc(N3CCN(Cc4ccccc4-c4ccc(Cl)cc4)CC3)cc2)cc1[N+](=O)[O-] (configuration not stated)
-0.113%

Return p53-positive nuclei, normalised measured with Cellular tumor antigen p53 (Homo sapiens) given this compound: `CN(NC(=O)CC(=O)NN(C)C(=S)c1ccccc1)C(=S)c1ccccc1`
85.7%

Return p53-positive nuclei, normalised measured with Cellular tumor antigen p53 (Homo sapiens) given this compound: `CCOC(=O)c1sc(NC(=O)c2ccco2)c(SC#N)c1C`
0.0563%

Return p53-positive nuclei, normalised measured with Cellular tumor antigen p53 (Homo sapiens) given this compound: OC(c1cc(C(F)(F)F)nc2c(C(F)(F)F)cccc12)[C@H]1CCCCN1 (some centres not stated)
-0.187%

Return p53-positive nuclei, normalised measured with Cellular tumor antigen p53 (Homo sapiens) given this compound: Nc1ccn(C2C=C(CO)C(O)C2O)c(=O)n1 (configuration not stated)
0.146%

Return p53-positive nuclei, normalised measured with Cellular tumor antigen p53 (Homo sapiens) given this compound: `COC(=O)C#Cc1ccc([N+](=O)[O-])cc1`
-0.0792%

Return p53-positive nuclei, normalised measured with Cellular tumor antigen p53 (Homo sapiens) given this compound: C=C1C(=O)OC(CCCCCCCC)C1C(=O)O (configuration not stated)
-0.0115%

Return p53-positive nuclei, normalised measured with Cellular tumor antigen p53 (Homo sapiens) given this compound: Nc1ccn(C2OC(CO)C(O)C2F)c(=O)n1 (configuration not stated)
-0.0726%

Return p53-positive nuclei, normalised measured with Cellular tumor antigen p53 (Homo sapiens) given this compound: OCC1OC(n2cnc3c2NC=NCC3O)CC1O (configuration not stated)
-0.0326%

Return p53-positive nuclei, normalised measured with Cellular tumor antigen p53 (Homo sapiens) given this compound: CC(=O)OC1C(=O)[C@]2(C)C(O)CC3OC[C@@]3(OC(C)=O)C2C(OC(=O)c2ccccc2)[C@]2(O)CC(OC(=O)C(O)C(NC(=O)c3ccccc3)c3ccccc3)C(C)=C1C2(C)C (some centres not stated)
0.493%

Return p53-positive nuclei, normalised measured with Cellular tumor antigen p53 (Homo sapiens) given this compound: `N#CSc1cc(SC#N)c(N)nc1N`
-0.0579%

====

I'd be grateful if you could share measured nuclei count, normalised for these entries.
- method_notes: nuclear p53 accumulation, HPV+ cells – imaging, p53-positive nuclei imaging, 24 h, 48 h (AID 1508601)
- measurement_parameters: 24/48 h, measured here: cell number at 24 h, Library stock concentration: 10 mM
Screen size: about 5,700 compounds; about 85 (1%) were called active. The sample as a whole holds a higher share of actives than the screen did.
The answer is to be given in %; state only the numeric part.

Form field: reported nuclei count, normalised of `OCCCNc1cc(-c2ccnc(Nc3cccc(Cl)c3)n2)ccn1`
36.9

Form field: reported nuclei count, normalised of `CN(NC(=O)CC(=O)NN(C)C(=S)c1ccccc1)C(=S)c1ccccc1`
54.4

Form field: reported nuclei count, normalised of `CCN1CCN(Cc2ccc(NC(=O)c3ccc(C)c(Oc4ccnc5[nH]ccc45)c3)cc2C(F)(F)F)CC1`
101

Form field: reported nuclei count, normalised of COc1ccc(CC(NC(=O)C(C)NC(=O)CN2CCOCC2)C(=O)NC(Cc2ccccc2)C(=O)[C@@]2(C)CO2)cc1 (stereo partly specified)
52.6

Form field: reported nuclei count, normalised of `CCCCCc1ccc(C=CC(=O)Nc2ccccc2C(=O)O)cc1`
109

Form field: reported nuclei count, normalised of `COc1ccc(N(C(=O)Nc2c(C)cccc2C)c2cc(Nc3ccc(N4CCN(C)CC4)cc3OC)ncn2)c(OC)c1`
66

Form field: reported nuclei count, normalised of `Cc1cc(OCc2nnc(SC3CCCC3)n2-c2cccnc2)ccc1-c1ccc(S(C)(=O)=O)cc1`
53.9

Form field: reported nuclei count, normalised of `CCCCc1nc2cc(C=CC(=O)NO)ccc2n1CCN(CC)CC`
51

Form field: reported nuclei count, normalised of C=C1C(=O)OC(CCCCCCCC)C1C(=O)O (stereo unspecified)
106

Form field: reported nuclei count, normalised of `O=Nc1c(-c2c(O)[nH]c3cc(Br)ccc23)[nH]c2ccccc12`
63.9

Form field: reported nuclei count, normalised of OC(c1cc(C(F)(F)F)nc2c(C(F)(F)F)cccc12)[C@H]1CCCCN1 (stereo partly specified)
86.2

Form field: reported nuclei count, normalised of `O=C(O)CCCCCCCCCCCNC(=O)NC12CC3CC(CC(C3)C1)C2`
101

Form field: reported nuclei count, normalised of `O=C(Cc1ccc(-c2ccc(OCCN3CCOCC3)cc2)cn1)NCc1ccccc1`
39.3

Form field: reported nuclei count, normalised of `CN1CCN(C(=S)SSC(=S)N2CCN(C)CC2)CC1`
52.3

Form field: reported nuclei count, normalised of `Fc1cc(-c2ccnc(Nc3ccc(-n4cnc(N5CCOCC5)n4)cc3)n2)cc(N2CCOCC2)c1`
36.4

Form field: reported nuclei count, normalised of O=C(O)CCCC=CCC1C(O)CC(O)C1C=CC(O)COc1cccc(Cl)c1 (stereo unspecified)
62.6

Form field: reported nuclei count, normalised of COC(=O)C(NC(=O)c1cc(-c2ccccc2)nc2ccccc12)c1ccccc1 (stereo unspecified)
96.9

Form field: reported nuclei count, normalised of `COc1cc(OC)c2c(=O)[nH]c(-c3cc(C)c(OCCO)c(C)c3)nc2c1`
109

Form field: reported nuclei count, normalised of CC(C)CC(C(=O)NC(Cc1ccc(OCc2ccccc2)cc1)C(=O)NC(C)(C)C)N(C)Cc1ccc(C(C)(C)C)cc1 (stereo unspecified)
113

Form field: reported nuclei count, normalised of `O=C(O)C=Cc1ccc(Cn2ccnc2)cc1`
108

Form field: reported nuclei count, normalised of CC(C)C(N)C(=O)NC(Cc1ccccc1)C(=O)O (stereo unspecified)
113
